Every entry's value here was drawn from PubChem BioAssay AID256.

System: CD2F1 mice, L1210 leukemia ip, survival T/C
Experiment: NCI In Vivo Anticancer Drug Screen. Data for tumor model L1210 Leukemia (intraperitoneal) in CD2F1 (CDF1) mice
Details: endpoint: mean survival time; dose: 20.0 mg/kg/injection; schedule: Q04DX003 (ip); vehicle: saline; higher = longer survival
Inconclusive results and toxic doses are left out.
quantity: T/C

CC(C#N)N(C)C (centres undefined) :: 104 % of control
CC1CCCC(C)N1C1=NCCO1 (centres undefined) :: 94 % of control
c1ccc(C(c2ccccc2)[n+]2ccccc2)cc1 :: 109 % of control

Documented T/C of Nc1nc(=S)c2ncn(C3CC(O)C(CO)O3)c2[nH]1 (centres undefined) : 157 % of control

###

System: CD2F1 mice, L1210 leukemia ip, survival T/C
Assay: NCI In Vivo Anticancer Drug Screen. Data for tumor model L1210 Leukemia (intraperitoneal) in CD2F1 (CDF1) mice
Conditions: endpoint: mean survival time; dose: 200.0 mg/kg/injection; schedule: Q01DX009 (ip); vehicle: saline with Tween-80; higher = longer survival
Inconclusive results and toxic doses are left out.
Answer each item with its documented T/C.

Here's what some known entries look like.
CCc1ccc(NS(=O)(=O)c2ccccc2)cc1 :: 106 % of control
CCOC(=O)c1cnc(SCc2ccccc2)nc1N :: 94 % of control
CCCCC#CC1CCCC1 (tested in a mixture with another compound) :: 100 % of control
S=C(Nc1ccccc1)N1CCCC1 :: 102 % of control

// batch mode: one T/C value per listed entry
1. CCOCc1cccc2ccccc12
2. C=CCOC(=O)C1c2ccccc2Cc2ccccc21
3. CN(C)c1ccc(/C=C/c2ccncc2)cc1

Result:
["102 % of control", "106 % of control", "96 % of control"]

###

Answer each item with its documented T/C.
System: CD2F1 mice, L1210 leukemia ip, survival T/C
Assay: NCI In Vivo Anticancer Drug Screen. Data for tumor model L1210 Leukemia (intraperitoneal) in CD2F1 (CDF1) mice
Details: endpoint: mean survival time; dose: 400.0 mg/kg/injection; schedule: Q04DX003 (ip); vehicle: saline; higher = longer survival
Toxic doses and inconclusive results are not listed.

COC1OC(CO)C2OC(=O)NC2C1O (centres undefined) :: 100 % of control
CC(=O)C(C)N(C)C (centres undefined) :: 96 % of control
CCCCCCCC(=O)Nc1ccccc1F :: 95 % of control

Documented T/C of O=C(O)O.O=C(O)O.O=C(O)O.[Co] : 97 % of control

###

Answer each item with its documented T/C.
Test system: CD2F1 mice, L1210 leukemia ip, survival T/C
Experiment: NCI In Vivo Anticancer Drug Screen. Data for tumor model L1210 Leukemia (intraperitoneal) in CD2F1 (CDF1) mice
Conditions: endpoint: mean survival time; dose: 200.0 mg/kg/injection; schedule: Q01DX009 (ip); vehicle: saline; higher = longer survival
Toxic doses and inconclusive results are not listed. Non-standard residues stand in square brackets, D forms with d. Residues, ends and D or L forms follow the SMILES beside them. ξ: configuration not given here. ξF = NC(Cc1ccccc1)C(=O)O; Ac5c = NC1(C(=O)O)CCCC1

Here's what some known entries look like.
CC(C)(CO)NC(=O)CCO :: 103 % of control
C[n+]1ccccc1CCc1cccc[n+]1C :: 104 % of control
CC(C)=CC1C(C(=O)OCc2ccc(C)cc2C)C1(C)C (configuration not stated) :: 96 % of control
COC1C(/C=C/C(C)=O)OC2OC(C)(C)OC21 (configuration not stated) :: 116 % of control
NC(Cc1ccccc1)C(=O)NC1(C(=O)O)CCCC1 (configuration not stated) (H-[ξF]-[Ac5c]-OH) :: 107 % of control

// batch mode: one T/C value per listed entry
1. O=C1CC2=C(CC(O)=CC=C2)C(=O)O1
2. COc1ccc(N)cc1OC

Result:
["93 % of control", "102 % of control"]
